Each record here notes measured normalised cell viability.
- Test system: V-C8 + BRCA2 (BRCA2-proficient hamster cells)
- protocol details: normalised cell viability (fraction of plate median); higher = more viable cells (less toxic)
- details: treatment time: 6 days; 5 µM
Structures can show the parent of a compound that is named as a salt. Over roughly 1,300 compounds, “normalised cell viability” has its median near 1; the lowest 2% begin near 0.15. The entries come from a sample that favours the lowest values as a whole.
Please give the numeric answer without any surrounding text.

Below: 3 compounds and their reported normalised cell viability.
COCCCC/C(=N\OCCN)c1ccc(C(F)(F)F)cc1 [Fluvoxamine maleate]; 1.17
CC(C)(C)NC(=O)[C@@H]1C[C@@H]2CCCC[C@@H]2CN1C[C@@H](O)[C@H](Cc1ccccc1)NC(=O)[C@H](CC(N)=O)NC(=O)c1ccc2ccccc2n1 [Saquinavir mesylate]; 0.952
CC(C)[C@H]1CC[C@H](C(=O)N[C@H](Cc2ccccc2)C(=O)O)CC1 [Nateglinide]; 1.04

// switching to the query compound
Q: Reported normalised cell viability, compound Cc1c(Cl)cccc1Nc1ncccc1C(=O)O [Clonixin Lysinate] : ____
Ans: 0.983

====

- Tested on: V-C8 + BRCA2 (BRCA2-proficient hamster cells)
- protocol details: normalised cell viability (fraction of plate median); higher = more viable cells (less toxic)
- details: treatment time: 3 days; 5 µM
Counter-ions that a name gives are not always drawn. Whole data set: some 1,300 compounds, median “normalised cell viability” near 1, cut for the lowest 2% near 0.15. What follows is part of a selection rich in the lowest values, with near analogues and random picks from the rest.
So basically: is normalised cell viability under 1? Then 1 (yes). Not under? Then 0 (no).

Before answering, review these 5 worked examples.
CC(C)/N=c1\cc2n(-c3ccc(Cl)cc3)c3ccccc3nc-2cc1Nc1ccc(Cl)cc1; 1 (yes)
NS(=O)(=O)c1cc(Cl)c(Cl)c(S(N)(=O)=O)c1 [Dichlorphenamide]; 0 (no)
CCN(CC)CCCC(C)Nc1c2ccc(Cl)cc2nc2ccc(OC)cc12 (stereo not drawn) [Quinacrine dihydrochloride dihydrate]; 1 (yes)
CCN(CC)CCCC(C)Nc1ccnc2cc(Cl)ccc12 (stereo not drawn) [Chloroquine diphosphate]; 1 (yes)
NS(=O)(=O)c1cc(C2(O)NC(=O)c3ccccc32)ccc1Cl (stereo not drawn); 0 (no)

Q: Is normalised cell viability of C[C@H]1O[C@@H](O[C@H]2[C@@H](O)C[C@H](O[C@H]3[C@@H](O)C[C@H](O[C@H]4CC[C@@]5(C)[C@H](CC[C@@H]6[C@@H]5C[C@@H](O)[C@]5(C)[C@@H](C7=CC(=O)OC7)CC[C@]65O)C4)O[C@@H]3C)O[C@@H]2C)C[C@H](O)[C@@H]1O strictly below 1?
Ans: 0 (no)

Q: Is normalised cell viability of Cc1c(Cl)cccc1Nc1ncccc1C(=O)O [Clonixin Lysinate] strictly below 1?
Ans: 1 (yes)

Q: Is normalised cell viability of CC=CC1=C(C(=O)O)N2C(=O)[C@@H](NC(=O)[C@H](N)c3ccc(O)cc3)[C@H]2SC1 strictly below 1?
Ans: 1 (yes)

====

- Tested on: V-C8 + BRCA2 (BRCA2-proficient hamster cells)
- protocol details: normalised cell viability (fraction of plate median); higher = more viable cells (less toxic)
- details: treatment time: 3 days; 5 µM
Structures can show the parent of a compound that is named as a salt. The full ranking holds about 1,300 compounds; the median of “normalised cell viability” is about 1, and the lowest 2% start at about 0.15. Many of the other results were omitted from the sample, so the lowest values are more common in it than they were.
parameter: normalised cell viability
Please give the numeric answer without any surrounding text.

COC(=O)C1=C(C)NC(C)=C(C(=O)OC(C)C)C1c1cccc2nonc12 (centres undefined); 1.02
O=C(O)CCC(=O)Nc1ccc(S(=O)(=O)Nc2nccs2)cc1; 0.979
Clc1ccc(C(c2ccccc2Cl)C(Cl)Cl)cc1 (centres undefined); 1.02

Q: Find the measured normalised cell viability: item NCCNCCNCCNCCN [Tetraethylenepentamine pentahydrochloride] , target or system V-C8 + BRCA2 (BRCA2-proficient hamster cells).
Ans: 0.972
